Assignment: determine reported GI50 for the given molecules.
system: MOLT-4; experiment: NCI tumour cell line growth inhibition, 48 h
The source made the active and inactive calls. No stated cut-off is given here; in the data, active = GI50 up to about 1.1 µM and inactive = higher.

Respectfully, I request GI50 for each entry included below.
1. C[As+](C)(c1ccc(Br)c([N+](=O)[O-])c1)c1ccc(Br)c([N+](=O)[O-])c1
2. Cc1ccc(/N=N/C(=N/NC(=O)c2cc(Cl)ccc2O)c2ccc(N(CCC#N)CCC#N)cc2C)cc1
3. CC1=NN(c2nc(N)nc(COCc3nc(N)nc(N4N=C(C)CC4(C)C)n3)n2)C(C)(C)C1
4. O=C(CSc1ncccn1)N/N=C/c1ccccc1OCc1ccccc1
5. Cc1c(N=NN(C)C)cc[n+]([O-])c1C
6. O=c1[nH][nH]c(=O)n1Cc1ccccc1
7. COc1cccc(/C=C2\CCCc3ccccc3C2=O)c1
8. CCCNC(=O)CCC(C)[C@H]1CCC2C3C(C[C@H](OC(C)=O)[C@@]21C)[C@@]1(C)CCC2(C[C@H]1C[C@H]3OC(C)=O)OOC1(CCC(C)CC1)OO2 (stereo not given in full)

["> 100 µM (inactive)", "53.7 µM (inactive)", "> 100 µM (inactive)", "20.2 µM (inactive)", "> 100 µM (inactive)", "> 100 µM (inactive)", "19.4 µM (inactive)", "37.7 µM (inactive)"]

Consider the following items and state reported GI50 for each.
1. COc1cc2c(c(OC)c1OC)C(=O)[C@@H]1[C@H]2N1C(=O)NCCCl
2. COc1ccc(C)cc1-c1cc(Sc2ccccc2)c(-c2cc(C)ccc2OC)o1
3. CC(Nc1ccc(Cl)c(Cl)c1)c1ccncc1 (stereo not given)
4. CCOC(=O)CC1Nc2ccccc2C12CCc1c([nH]c3ccccc13)C2C(=O)OCC (stereo not given)
5. Cc1ccc(SC2C(=O)C3CC(OCc4ccccc4)C2(C)C3(C)C)cc1 (stereo not given)

["50.7 µM (inactive)", "> 31.6 µM (inactive)", "19.5 µM (inactive)", "6.1 µM (inactive)", "13 µM (inactive)"]

Need GI50 for each of these molecules.
1. COC(=O)c1ccc(NC(=O)O/N=C(\Cl)C(C)C)cc1
2. N#CC(c1ccc(Cl)cc1)c1cccc(C(C#N)c2ccc(Cl)cc2)n1 (stereo not given)
3. Cc1ccc(N(C(=O)CC(=O)N2N=C(c3ccccc3)C(/N=N/c3ccc([N+](=O)[O-])cc3)C2=O)C(=O)c2ccc(Cl)cc2)cc1 (stereo not given)
4. COc1ccccc1C1=C2C(=O)N(C)C(c3ccccc3OC)=C2C(=O)N1C
5. N/C(=N\O)N/N=C\c1cc([N+](=O)[O-])cc([N+](=O)[O-])c1O
6. COc1ccc(C2=C(Cl)C(=O)O/C2=C\c2ccc(OC)c(Br)c2)cc1Cl

["1.79 µM (inactive)", "8.02 µM (inactive)", "> 42.1 µM (inactive)", "> 100 µM (inactive)", "10.2 µM (inactive)", "41.5 µM (inactive)"]

Complete the entry with GI50 for O=C1c2ccccc2-c2nnc(-c3ccc([N+](=O)[O-])cc3)cc21
> 10 µM (inactive)

----------
system: HCC 2998; assay: NCI tumour cell line growth inhibition, 48 h
Calls of active or inactive are those of the source. Cut-off read from the data, not from the text of the source: active = GI50 up to about 1.1 µM and inactive = higher.
Consider the following compounds; for each one, report its GI50.

// solved cases for GI50 follow
compound="Nc1ncnc2c1ncn2CC(OCP(=O)(O)O)Oc1ccccc1 (stereo not given)" reported_measurement="> 100 µM (inactive)"
compound=COc1cc2cccc(/N=C/c3c(Br)ccc(OC)c3OC(C)C)c2cc1OC reported_measurement="65.3 µM (inactive)"
compound=COC(=O)c1cccc2cccc(C(=O)Nc3ccc(Cl)cc3)c12 reported_measurement="6.17 µM (inactive)"
compound="Cc1nn(C(=O)Cc2ccccc2)c2c1C(c1ccc(/C=C/c3ccccc3)cc1)SC(=N)N2 (stereo not given)" reported_measurement="> 100 µM (inactive)"
compound=CC1=C(C#N)C(N)=C2C(C)=C(C#N)C(N)=C12 reported_measurement="> 100 µM (inactive)"
compound=COc1ccc(OC)c(NC(=O)C(=O)Nn2c(S)nc3ccccc3c2=O)c1 reported_measurement="> 100 µM (inactive)"

For each listed entry, give its GI50.
1. O=C1c2ccccc2/C=C\C(c2ccccc2)=N/N1c1ccccc1Cl
2. COc1ccc2c(c1)[n+]([O-])c(/C(C)=N/NC(=O)c1ccccc1O)c(C)[n+]2[O-]
3. Cc1cccc(Nc2nc(NNC(=O)Cc3ccccc3)nc(NNC(=O)c3ccncc3)n2)c1
4. S=P(c1ccccc1)(c1ccccc1)C1(C2(P(=S)(c3ccccc3)c3ccccc3)CC2)CC1

1. 30.3 µM (inactive)
2. > 100 µM (inactive)
3. > 10 µM (inactive)
4. > 100 µM (inactive)

This collection of values is drawn from ChEMBL document CHEMBL1201862.
